Catalogue of Ki readings, one per entry.
# testedTarget: efflux protein (Escherichia coli, UniProt P02980)
# Sequence (P02980 whole entry): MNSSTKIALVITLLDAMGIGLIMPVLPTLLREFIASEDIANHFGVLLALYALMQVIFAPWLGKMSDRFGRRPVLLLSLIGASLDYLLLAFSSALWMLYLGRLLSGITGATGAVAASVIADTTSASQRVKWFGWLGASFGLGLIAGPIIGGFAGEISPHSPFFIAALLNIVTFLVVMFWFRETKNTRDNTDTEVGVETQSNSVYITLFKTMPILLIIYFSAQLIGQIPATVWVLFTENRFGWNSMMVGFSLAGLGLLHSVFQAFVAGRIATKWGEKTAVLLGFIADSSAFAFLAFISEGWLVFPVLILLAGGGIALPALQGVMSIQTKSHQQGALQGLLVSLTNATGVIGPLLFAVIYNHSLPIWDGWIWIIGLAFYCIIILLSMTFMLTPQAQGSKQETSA
# runDescription: everted membrane vesicle assay, blocking activity of 13-S-derivatives
# Format: biochemical
# conditionSummary: blocking activity against the efflux protein, everted membrane vesicle assay
measuredQuantity: Ki (µM)

INSERT INTO assay_data (compound, measurementunits, number) VALUES
  ('CCCCCCSCC1c2cccc(O)c2C(=O)C2=C(O)C3(O)C(=O)C(C(N)=O)=C(O)C(N(C)C)C3C(O)C21 (centres unmarked)', 'µM', 5.53),
  ('CC(C)CSCC1c2cccc(O)c2C(=O)C2=C(O)C3(O)C(=O)C(C(N)=O)=C(O)C(N(C)C)C3C(O)C21 (centres unmarked)', 'µM', 0.188),
  ('CC(C)SCC1c2cccc(O)c2C(=O)C2=C(O)C3(O)C(=O)C(C(N)=O)=C(O)C(N(C)C)C3C(O)C21 (centres unmarked)', 'µM', 0.771);
